System: Caco-2 cells (clone C2BBe1); also: unit not given here
Details: human, Caco-2
MEASUREMENT_LABEL: Caco2 B to A
Lab note: jot the number down without any unit.

N#C[C@@]1(c2ccc3c(N)ncnn23)O[C@H](COC(=O)OC2CCOC2)[C@H]2OC(=O)CCCC(=O)O[C@H]21 (stereo partly drawn) [Compound C23] : 4.38
N#C[C@@]1(c2ccc3c(N)ncnn23)O[C@H](COC(=O)OC2CCOCC2)[C@H]2OC(=O)CCCC(=O)O[C@H]21 [Compound C16] : 5.08
COC(=O)[C@H]([C@@H](C)OC(=O)OC[C@H]1O[C@@](C#N)(c2ccc3c(N)ncnn23)[C@@H]2OC(=O)CCCC(=O)O[C@@H]21)N(C)C [Compound C31, 2,2,2-trifluoroacetate] : 5.62

IN: For the compound shown here, CC1(C)CC(=O)O[C@H]2[C@@H](OC(=O)C1)[C@](C#N)(c1ccc3c(N)ncnn13)O[C@@H]2COC(=O)OCC1(C#N)CC1 [Compound C41] , give the reported Caco2 B to A.
OUT: 6.77

IN: For the compound shown here, CC(C)OC(=O)OC[C@H]1O[C@@](C#N)(c2ccc3c(N)ncnn23)[C@@H]2OC(=O)OCCC=CCCOC(=O)O[C@@H]21 [Compound C52] , give the reported Caco2 B to A.
OUT: 11.87

IN: For the compound shown here, CC1(C)CC(=O)O[C@H]2[C@@H](OC(=O)C1)[C@](C#N)(c1ccc3c(N)ncnn13)O[C@@H]2COC(=O)OC1CCOCC1 [Compound C33] , give the reported Caco2 B to A.
OUT: 3.17

Just for reference, patent US20240417411A1 is where these values come from.
